Tested on: PKN1
Conditions: concentration: 1 μM, replicates: in singlicate; n = 1;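 note: KINOMEscan kinase panel screen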
# %Inh per entry
readoutType: %Inh (%)

recordsmiles=Fc1cc(Cl)ccc1Nc1ccnc2cc(-c3ccc(CN4CCSCC4)o3)ccc12 resultvalue=0
recordsmiles=O=C(Nc1n[nH]c2nc(-c3ccccc3)ccc12)C1CC1 resultvalue=11
recordsmiles=Nc1cccc(-c2ccc3c(N)n[nH]c3c2)c1 resultvalue=0
recordsmiles=O=C1NC(=O)C(c2ccccc2Cl)=C1Nc1cccc(Cl)c1 resultvalue=100
recordsmiles=COc1cc(Nc2nccc(N3CCC(NS(=O)(=O)c4ccc(NC(C)=O)cc4)CC3)n2)cc(OC)c1OC resultvalue=16

---

Test system: JAK2(JH1domain-catalytic)
Conditions: concentration: 1 μM, replicates: in singlicate; n = 1
readoutType: %Inh (%)

compound="CC(C)NCC(Cc1ccccc1)NC(=O)c1cc(Br)c(-c2ccnc3[nH]ccc23)s1.Cl.Cl (stereo not shown) [GSK1383281]" resultvalue=71
compound="Cl.Cl.NCC(NC(=O)c1cc(-c2cccnc2)c(-c2ccnc3[nH]ccc23)s1)c1ccccc1 (stereo not shown) [GSK1323434]" resultvalue=31
compound="COc1cccc(-c2nc(-c3ccccc3)[nH]c2-c2ccncc2)c1 [SB-610250]" resultvalue=17
compound="COc1cccc(NC(=O)NCCNc2ccnc(Nc3ccc(F)cc3)n2)c1 [GSK1379879]" resultvalue=22

---

Test system: PLK3
Conditions: concentration: 1 μM, replicates: in singlicate; n = 1
# %Inh per entry
readoutType: %Inh (%)

molecule=CC(C)c1nc(-c2ccc(F)c(NS(=O)(=O)c3c(F)cccc3F)c2)c(-c2ccnc(Nc3ccc(N4CCOCC4)nc3)n2)s1 readouttype=%Inh resultvalue=0
molecule=Cc1cccc(Nc2nc(NCCN)ncc2C(N)=O)c1 readouttype=%Inh resultvalue=0
molecule=N#CC1(c2cccc(C(=O)Nc3cccc(Oc4ccc5nc(NC(=O)C6CC6)sc5n4)c3)c2)CC1 readouttype=%Inh resultvalue=21
molecule=Cn1cc(-c2ccc3c(c2)CCN3C(=O)Cc2cc(F)cc(F)c2F)c2c(N)ncnc21 readouttype=%Inh resultvalue=0
molecule=O=C(Nc1c(F)cccc1F)c1cc(C(=O)c2ccccc2F)c[nH]1 readouttype=%Inh resultvalue=0
molecule=Cc1ccc(O)cc1Nc1ccnc2ccc(C(C)(C)C)cc12 readouttype=%Inh resultvalue=15
molecule="Cc1ccc(-c2ccc3occ(-c4ccc(S(C)=O)cc4)c3c2)nn1 (stereo not drawn)" readouttype=%Inh resultvalue=0
molecule=c1ccc(Oc2ccc(Nc3ccnc4cc(-c5ccc(CN6CCCCC6)o5)ccc34)cc2)nc1 readouttype=%Inh resultvalue=0
molecule=CN(c1ccc(NC(=O)N2CCN(CCCN3CCOCC3)CC2)cc1)c1ccnc(Nc2ccc(CS(C)(=O)=O)cc2)n1.Cl readouttype=%Inh resultvalue=0
molecule=CCn1cnc2c(NCc3ccccc3)ncnc21 readouttype=%Inh resultvalue=34
molecule=Cc1ccc(Nc2ccnc(Nc3ccc(C)c(F)c3)n2)cc1O.Cl readouttype=%Inh resultvalue=3
molecule=CC(C)c1nc(-c2cccc(NS(=O)(=O)c3c(F)cccc3F)c2)c(-c2ccnc(Nc3ccc(N4CCOCC4)nc3)n2)s1.Cl readouttype=%Inh resultvalue=0
molecule=Cc1nn2c(=O)cc(N3CCO[C@H](C)C3)nc2n1Cc1cccc(Cl)c1Cl readouttype=%Inh resultvalue=0
molecule=Cc1ccc(C)c(NC(=O)Nc2ccc(C)c(-c3ccc(C(=O)Nc4ccncc4)cc3)c2)c1 readouttype=%Inh resultvalue=0
molecule=Cn1cc(-c2cnc(N)c3c(-c4ccc5c(c4)CCN5C(=O)Cc4ccccc4)csc23)cn1 readouttype=%Inh resultvalue=16

---

Tested on: MYLK2
Settings: concentration: 1 μM, replicates: in singlicate; n = 1
Binning of %Inh into classes: bucket A: < 4%; bucket B: ≥ 4% and < 30%; bucket C: ≥ 30%

compound="Cc1ccc(-c2ccc3occ(-c4ccc(S(C)=O)cc4)c3c2)nn1 (stereo not shown)" grouplabel="bucket B"
compound="CN1CCN(Cc2ccc(NC(=O)Nc3ccc(N(C)c4ccnc(Nc5ccc(CS(C)(=O)=O)cc5)n4)cc3)cc2)CC1.Cl [GW827654]" grouplabel="bucket C"
compound="COc1cc(Nc2nccc(N3CCC(NS(=O)(=O)c4ccc(NC(C)=O)cc4)CC3)n2)cc(OC)c1OC [GSK1379825]" grouplabel="bucket C"
compound="Cl.Cl.NCC(NC(=O)c1cc(-c2cccnc2)c(-c2ccnc3[nH]ccc23)s1)c1ccccc1 (stereo not shown) [GSK1323434]" grouplabel="bucket B"
compound="Fc1cc(Cl)ccc1Nc1ccnc2cc(-c3ccc(CN4CCOCC4)o3)ccc12 [GW560109]" grouplabel="bucket B"
compound="Cc1cc(-c2ccnc(Nc3cccc(C#N)c3)n2)cc(C)c1O [GSK1440913]" grouplabel="bucket C"
compound="CSc1ccc(NC2=C(c3ccc(Cl)cc3)C(=O)NC2=O)cc1 [SB-317658]" grouplabel="bucket B"
compound="O=C(Nc1n[nH]c2nc(-c3cccc(O)c3)ccc12)C1CC1 [SB-711805]" grouplabel="bucket C"
compound="COc1cccc(CC(=O)N2CCc3cc(-c4cn(C)c5ncnc(N)c45)ccc32)c1 [GSK2608899]" grouplabel="bucket C"
compound="Cc1cccc(Nc2nc(N[C@H]3CCCC[C@H]3N)ncc2C(N)=O)c1.Cl [GSK986310]" grouplabel="bucket B"
compound=CN(c1ccc(F)c(NC(=O)c2cccc(OC(C)(C)C#N)c2Cl)c1)c1ccc2nc(NC(=O)C3CC3)sc2n1 grouplabel="bucket A"
compound="Cl.O=C(Nc1ccc(Oc2ccc3[nH]c(NC(=O)c4ccco4)nc3c2)cc1)Nc1cc(C(F)(F)F)ccc1F [GW683134]" grouplabel="bucket C"
compound="CN(C)CCOc1ccc(-c2cc(-c3ccc(Cl)c(O)c3)c(-c3ccncc3)[nH]2)cc1.Cl.Cl [SB-684387]" grouplabel="bucket B"
compound="COc1cc(Nc2ccnc3cc(-c4ccncc4)ccc23)cc(OC)c1OC.Cl [GW494610]" grouplabel="bucket B"
compound="O=C(Nc1n[nH]c2cc(-c3cccs3)ccc12)C1CC1 [SB-731284]" grouplabel="bucket C"
compound="Cc1ccccc1CC(=O)N1CCc2cc(-c3cn(C)c4ncnc(N)c34)ccc21 [GSK2603346]" grouplabel="bucket C"
compound="CCn1cnc2c(NCc3ccccc3)ncnc21 [SKF-96418]" grouplabel="bucket A"
compound="Cc1ccc(C)c(NC(=O)Nc2ccc(C)c(-c3ccc(C(=O)Nc4ccncc4)cc3)c2)c1 [GSK1398473]" grouplabel="bucket A"
compound="Cc1ccc(O)cc1Nc1ccnc2cc(-c3ccc(CN4CCCCC4)o3)ccc12 [GW557777]" grouplabel="bucket A"
compound="NCCC(NC(=O)c1cc(Br)c(-c2ccnc3[nH]ccc23)s1)c1ccccc1.O=C(O)C(F)(F)F.O=C(O)C(F)(F)F (stereo not shown) [GSK1307810]" grouplabel="bucket B"
compound="COc1ccc(C2=C(Nc3cccc(O)c3)C(=O)NC2=O)cc1 [SB-390766]" grouplabel="bucket B"
compound="COc1cccc2c(-c3ccncc3)c(-c3ccc(F)cc3)nn12 [GW468513]" grouplabel="bucket A"
compound="CN(C)CCNS(=O)(=O)c1ccc(-c2ccnc3[nH]ccc23)cc1 [GSK977620]" grouplabel="bucket C"
compound="Nc1ncnc2scc(-c3ccc(NC(=O)Cc4cc(F)ccc4F)cc3)c12.O=C(O)C(F)(F)F [SB-731254-M]" grouplabel="bucket C"
compound="COc1cccc(C2=C(Nc3cccc(O)c3)C(=O)NC2=O)c1 [SB-390771]" grouplabel="bucket A"
compound="COc1ccc(NC(=O)c2ccoc2)cc1-c1ccc(C(=O)NCC2CC2)cc1 [GW810437]" grouplabel="bucket A"
compound="Nc1ncc(-c2ccc3nccc(-c4ccncc4)c3c2)cc1S(=O)(=O)N1CCCCC1 [GSK1693850]" grouplabel="bucket A"
compound="CN(c1ccc2c(c1)nc(NCc1ccccc1)n2C)c1ccnc(Nc2ccc(CS(C)(=O)=O)cc2)n1.Cl [GW811603]" grouplabel="bucket B"
compound="Cc1ccc(NC(=O)c2ccnc(N3CCCCC3)c2)cc1-c1ccc(C(=O)NCC2CC2)cc1 [GW775610]" grouplabel="bucket B"
compound="CC(C)c1nc(-c2ccc(F)c(NS(=O)(=O)c3c(F)cccc3F)c2)c(-c2ccnc(Nc3ccc(N4CCOCC4)nc3)n2)s1 [GSK1804250]" grouplabel="bucket A"
compound="Cl.N#CCc1ccc(Nc2nccc(Nc3ccc(Oc4ccccc4)cc3)n2)cc1 [GW639905]" grouplabel="bucket A"
compound="O=C(Nc1n[nH]c2nc(-c3ccccc3O)ccc12)C1CC1 [SB-711880]" grouplabel="bucket C"
compound=N#CC1(c2cccc(C(=O)Nc3cccc(Oc4ccc5nc(NC(=O)C6CC6)sc5n4)c3)c2)CC1 grouplabel="bucket A"

---

Tested on: MAPKAPK5
Conditions: concentration: 1 μM, replicates: in singlicate; n = 1
readoutType: %Inh (%)

compound=O=C(Nc1c(F)cccc1F)c1cc(C(=O)c2ccccc2F)c[nH]1 targetofassay=MAPKAPK5 resultvalue=0
compound=Cc1cc(-c2c(-c3ccc(F)cc3)ncn2CCCN2CCOCC2)nc(N)n1 targetofassay=MAPKAPK5 resultvalue=0
compound=COc1cccc(CC(=O)N2CCc3cc(-c4cn(C)c5ncnc(N)c45)ccc32)c1 targetofassay=MAPKAPK5 resultvalue=0
compound=CCOc1nccc(-c2c(-c3ccc(F)cc3)ncn2C2CCNCC2)n1 targetofassay=MAPKAPK5 resultvalue=39
compound=Cc1cccc(Nc2nc(N[C@H]3CCCC[C@H]3N)ncc2C(N)=O)c1.Cl targetofassay=MAPKAPK5 resultvalue=0
compound=Cn1cc(-c2cnc(N)c3c(-c4ccc5c(c4)CCN5C(=O)Cc4ccccc4)csc23)cn1 targetofassay=MAPKAPK5 resultvalue=0
compound=O=C(Nc1n[nH]c2nc(-c3cccc(O)c3)ccc12)C1CC1 targetofassay=MAPKAPK5 resultvalue=3
compound=CSc1ccc(NC2=C(c3ccc(Cl)cc3)C(=O)NC2=O)cc1 targetofassay=MAPKAPK5 resultvalue=0
compound="CC(C)NCC(Cc1ccccc1)NC(=O)c1cc(Br)c(-c2ccnc3[nH]ccc23)s1.Cl.Cl (stereo not drawn)" targetofassay=MAPKAPK5 resultvalue=0
